tested on: SW-620 colon; experiment: NCI tumour cell line growth inhibition, 48 h
Overview of recorded TGI for various molecules
Quick reminder: number only, in µM, skip the unit.

Example entries and their recorded answers appear below.
FC(F)(F)c1cc(NC2=NCCN=C(Nc3cc(C(F)(F)F)cc(C(F)(F)F)c3)SS2)cc(C(F)(F)F)c1 :: 14.8
Cc1ccc2cnc(N)c(C#Cc3cncc(C(=O)Nc4ccc(CN5CCN(C)CC5)c(C(F)(F)F)c4)c3)c2c1 :: 0.54

[ask] Which TGI value belongs to "COC1=CC(=O)c2c(cc(COP(=O)(N(C)CCBr)N(C)CCBr)n2C)C1=O" ?
[reply] 7.58

[ask] Repeat for the following molecule: "c1ccc(-c2cnc3nc4ccccc4nc3n2)cc1"
[reply] 18

[ask] Repeat for the following molecule: "Brc1ccc2c(c1)c(-c1nc(-c3c[nH]c4ncccc34)cs1)cn2CCCN1CCCCC1"
[reply] 3.31

###

tested on: OVCAR-8 ovarian; assay: NCI tumour cell line growth inhibition, 48 h; in the data active = GI50 below about 0.43 µM; inactive = the rest
Reply using exactly one outcome from label 1 = active, label 0 = inactive

Cc1cc(S(=O)(=O)Nc2nc3cc(-c4ccsc4)sc3c(=O)n2N)c(S)cc1Cl :: label 0

[ask] // return assay outcome for "C=C1C[C@@H]2[C@H](CC[C@]3(C)C(=O)CC[C@@H]23)[C@@]2(C)C=CC(=O)C=C12"
[reply] label 0

[ask] Repeat for the following compound: "S=C(Nc1ccccc1)N1CCn2c1nsc2=Nc1ccccc1"
[reply] label 0

[ask] Repeat for the following compound: "Cc1[nH]n(-c2ccccc2)c(=O)c1C(=O)c1ccccc1"
[reply] label 0

[ask] Repeat for the following compound: "O=C(Nc1cccc([N+](=O)[O-])c1)c1cc2ccccc2cc1O"
[reply] label 0

[ask] Repeat for the following compound: Cc1nc2sc(C(=O)Nc3cccc(Cl)c3C)c(N)c2cc1C(C)O (stereo unspecified)
[reply] label 1

###

Overview of recorded TGI for various molecules
system: SK-MEL-28 melanoma; assay: NCI tumour cell line growth inhibition, 48 h

Example entries and their recorded answers appear below.
CC(=O)OCC(OC(C)=O)C(OC(C)=O)C(OC(C)=O)C(=O)CNn1c(-c2ccccc2Cl)nc2ccc(Br)cc2c1=O (configuration not stated) :: > 100 µM
C[C@H]1CC2=CC(=O)CC[C@]2(C)[C@H]2CC[C@@]3(C)[C@@H](CC[C@]3(C)O)[C@H]12 :: > 85.2 µM
O=c1oc2cc(OS(=O)(=O)c3ccccc3)ccc2c2c1CCCCC2 :: > 100 µM

[ask] Which TGI value belongs to CC1OC=CC(=O)C1O (configuration not stated) ?
[reply] > 100 µM

[ask] Repeat for the following molecule: "CC(C)N(Cc1ccccc1)S(=O)(=O)c1n[nH]c(C(C)(C)C)n1"
[reply] > 100 µM

[ask] Repeat for the following molecule: "COc1ccc(C2=NNC(=O)c3ccccc3N2c2nc(-c3cccs3)nc3ccc(Br)cc23)cc1"
[reply] > 100 µM

[ask] Repeat for the following molecule: C=C1C(=O)O[C@H]2C3C(=C(C)CC[C@@H]12)C(=O)[C@@H]1OC31C (some centres not stated)
[reply] 5.52 µM

###

system: HS 578T breast; test: NCI tumour cell line growth inhibition, 48 h
Endpoint: TGI (µM)
Quick reminder: number only, in µM, skip the unit.

Example entries and their recorded answers appear below.
C[n+]1c(-c2ccc(/C=N/Nc3ccnc(N/N=C/c4ccc(-c5cn6ccccc6[n+]5C)cc4)n3)cc2)cn2ccccc21 :: 93.1
O=C(Nc1nc(C23CC4CC(CC(C4)C2)C3)cs1)c1cc2cc([N+](=O)[O-])ccc2oc1=O :: 67.9
O=C(Nc1ccc(-c2ccnc(Nc3ccc(N4CCOCC4)cc3)n2)cc1)C1CCCN1 (centres undefined) :: 24.8

Let us move to another entry and its TGI.
[ask] Which TGI value belongs to "O=[N+]([O-])c1ccc(NC(=S)N/N=C(\c2ccccc2)c2ccccn2)cc1" ?
[reply] 9.39
